Molecular target: T1, cynomolgus monkey IGSF8 expressed on CT26 cells (cynomolgus monkey, UniProt Q969P0 28-613 (human entry))
T1 sequence: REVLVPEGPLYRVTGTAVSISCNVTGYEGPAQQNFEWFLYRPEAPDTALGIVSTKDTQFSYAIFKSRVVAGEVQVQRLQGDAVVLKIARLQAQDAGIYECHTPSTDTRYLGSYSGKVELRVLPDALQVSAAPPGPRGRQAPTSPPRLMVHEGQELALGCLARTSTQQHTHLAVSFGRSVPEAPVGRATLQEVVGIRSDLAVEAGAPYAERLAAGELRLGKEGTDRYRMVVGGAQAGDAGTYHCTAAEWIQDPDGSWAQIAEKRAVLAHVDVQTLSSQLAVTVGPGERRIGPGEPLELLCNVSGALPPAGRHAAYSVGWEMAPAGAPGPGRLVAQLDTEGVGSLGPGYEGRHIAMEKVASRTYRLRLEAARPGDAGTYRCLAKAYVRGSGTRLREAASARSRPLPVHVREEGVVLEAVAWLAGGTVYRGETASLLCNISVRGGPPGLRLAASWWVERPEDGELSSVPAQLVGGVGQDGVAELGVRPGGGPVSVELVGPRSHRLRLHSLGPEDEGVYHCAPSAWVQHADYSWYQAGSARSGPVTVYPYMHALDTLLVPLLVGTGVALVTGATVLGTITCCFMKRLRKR
Test: FACS on CT26 cells expressing IGSF8
endpoint_name: EC50 (µg/mL)
Just the number please, in µg/mL, no unit attached.

Consider the binder L1-01 (antibody, V domains shown, Expressed in CHO cells; also called L1 antibody; L1-01-IgG1) VH: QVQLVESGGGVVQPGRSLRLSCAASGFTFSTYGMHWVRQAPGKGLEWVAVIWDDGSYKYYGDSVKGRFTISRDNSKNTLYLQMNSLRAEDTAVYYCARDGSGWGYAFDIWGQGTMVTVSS VL: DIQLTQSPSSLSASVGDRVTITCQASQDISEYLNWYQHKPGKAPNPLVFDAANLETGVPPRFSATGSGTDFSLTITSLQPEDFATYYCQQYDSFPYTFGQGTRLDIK and give its measured EC50. 0.224

Values from patent US20230303695A1
